tested on: Klebsiella aerogenes DSM 30053; test: fold change of Histamine concentration vs plate DMSO controls (fold change (ratio)); higher = more amine produced, active = hit call of the paper (significant change in both replicates, either direction); settings: incubation time: 27 h, anaerobic, 37 °C
Counter-ions that a name gives are not always drawn.
Field: fold change of Histamine concentration. Provide a value for each of the compounds that follow.

Would you please look over these solved cases?
Compound: CCN(CC)CCNc1ccc(CO)c2sc3ccccc3c(=O)c12 [Hycanthone] (20 µM)
Obs value: 0.979 (inactive)
//
Compound: CN1CCN(C(c2ccccc2)c2ccccc2)CC1 [Cyclizine hydrochloride] (20 µM)
Obs value: 1.07 (inactive)
//
Compound: CC(C)Nc1cccnc1N1CCN(C(=O)c2cc3cc(NS(C)(=O)=O)ccc3[nH]2)CC1 [Delavirdine] (20 µM)
Obs value: 1.04 (inactive)

Could you tell me fold change of Histamine concentration for each of these compounds? They are listed below.
1. CN(C)CCCN1c2ccccc2Sc2ccccc21 [Promazine hydrochloride] (20 µM)
2. Cn1c(=O)c2c(ncn2CCO)n(C)c1=O [Etofylline] (20 µM)

Result:
1. 1.05 (inactive)
2. 0.983 (inactive)

---

system: Clostridium sporogenes DSM 1664; assay: growth (OD595) fold change vs plate DMSO controls (fold change (ratio)); higher = more growth; conditions: incubation time: 27 h, anaerobic, 37 °C
Where a name gives a salt, the structure may show the parent alone.
Binary classification by growth, with 1 as an inclusive lower bound for Condition met; all other cases are Condition not met.

Compound: C[C@@H]1C[C@H]2[C@@H]3C[C@H](F)C4=CC(=O)C=C[C@]4(C)[C@@]3(F)[C@@H](O)C[C@]2(C)[C@@]1(O)C(=O)COC(=O)C(C)(C)C [Flumethasone pivalate] (20 µM)
Class name: Condition not met
//
Compound: O=c1[nH]c(=O)n([C@H]2C[C@H](O)[C@@H](CO)O2)cc1F [Floxuridine] (20 µM)
Class name: Condition not met
//
Compound: CCN(CC)C(C)CN1c2ccccc2Sc2ccccc21 (configuration not stated) [Ethopropazine hydrochloride] (20 µM)
Class name: Condition met
//
Compound: C=CCOC(Cn1ccnc1)c1ccc(Cl)cc1Cl (configuration not stated) (20 µM)
Class name: Condition met
//
Compound: C[C@@H]1C[C@H]2[C@@H]3C[C@H](F)C4=CC(=O)C=C[C@]4(C)[C@@]3(Cl)[C@@H](O)C[C@]2(C)[C@H]1C(=O)COC(=O)C(C)(C)C [Clocortolone pivalate] (20 µM)
Class name: Condition met
//
Compound: O=P(O)(O)C(O)(Cn1ccnc1)P(=O)(O)O [Zoledronic acid hydrate] (20 µM)
Class name: Condition met

For the next question, use this compound.
Q: Given CN1CCC(=C2c3ccccc3CCc3cccnc32)CC1 [Azatadine maleate] (20 µM) , state whether its growth is at least 1.
Result: Condition not met

---

test system: Ruminococcus gnavus DSM 108212; experiment: fold change of 2-Phenylethylamine concentration vs plate DMSO controls (fold change (ratio)); higher = more amine produced, active = hit call of the paper (significant change in both replicates, either direction); details: incubation time: 27 h, anaerobic, 37 °C
Structures can show the parent of a compound that is named as a salt.
Field: fold change of 2-Phenylethylamine concentration. Provide a value for each of the compounds that follow.
Numbers only.

Would you please look over these solved cases?
Compound: CCCCCOC(=O)Nc1nc(=O)n([C@@H]2O[C@H](C)[C@@H](O)[C@H]2O)cc1F [Capecitabine] (20 µM)
Obs value: 1.06
//
Compound: O=S(=O)(O)CCS [Coenzyme M] (20 µM)
Obs value: 0.902
//
Compound: OC(CCCN1CCCCC1)(c1ccccc1)c1ccccc1 [Diphenidol hydrochloride] (20 µM)
Obs value: 0.92

Could you tell me fold change of 2-Phenylethylamine concentration for each of these compounds? They are listed below.
1. CN(C)CC/C=C1\c2ccccc2CSc2ccccc21 [Dosulepin hydrochloride] (20 µM)
2. C=CCOC(Cn1ccnc1)c1ccc(Cl)cc1Cl (centres undefined) (20 µM)
3. COc1ccc(C(=O)NCc2cccnc2)cc1C(=O)NCc1cccnc1 [Picotamide monohydrate] (20 µM)
4. CCCNC(C)(C)C(=O)Nc1ccccc1C [Quatacaine] (20 µM)
5. CC(C(=O)O)c1ccc(C(=O)c2ccccc2)s1 (centres undefined) [Tiaprofenic acid] (20 µM)
6. Cc1cc2c(cc1S(N)(=O)=O)S(=O)(=O)CCC2 [Meticrane] (20 µM)

Result:
1. 0.952
2. 1.07
3. 0.866
4. 1.04
5. 1.07
6. 1

---

system: Klebsiella aerogenes DSM 30053; assay: growth (OD595) fold change vs plate DMSO controls (fold change (ratio)); higher = more growth; settings: incubation time: 27 h, anaerobic, 37 °C
Counter-ions that a name gives are not always drawn.
Field: growth. Provide a value for each of the compounds that follow.
Answers are plain numbers.

Would you please look over these solved cases?
Compound: C[C@H](NCc1ccc(OCc2cccc(F)c2)cc1)C(N)=O [Safinamide] (20 µM)
Target or test system: Klebsiella aerogenes DSM 30053
growth: 1
//
Compound: CC(C(=O)O)c1ccc(CC2CCCC2=O)cc1 (centres undefined) [Loxoprofen] (20 µM)
Target or test system: Klebsiella aerogenes DSM 30053
growth: 1.06
//
Compound: CNCc1cc(-c2ccccc2F)n(S(=O)(=O)c2cccnc2)c1 [Vonoprazan] (20 µM)
Target or test system: Klebsiella aerogenes DSM 30053
growth: 0.975
//
Compound: CC(CN(C)C)CN1c2ccccc2Sc2ccccc21 (centres undefined) [Trimeprazine tartrate] (20 µM)
Target or test system: Klebsiella aerogenes DSM 30053
growth: 1.07
//
Compound: CC(=O)Oc1c(C)cccc1C(=O)O [Cresopirine] (20 µM)
Target or test system: Klebsiella aerogenes DSM 30053
growth: 1.03

Could you tell me growth for each of these compounds? They are listed below.
1. COc1ccccc1N1CCN(CCCCNC(=O)c2ccc3ccccc3c2)CC1 (20 µM)
2. CC(=O)Oc1ccc(C(c2ccc(OC(C)=O)cc2)c2ccccn2)cc1 [Bisacodyl] (20 µM)
3. CCN(CC)CCOC(=O)C(c1ccccc1)C1CCCCC1 (centres undefined) [Drofenine hydrochloride] (20 µM)
4. CC(C)(C(=O)c1cccnc1)c1cccnc1 [Metyrapone] (20 µM)

Result:
0.969
0.993
1
1.01

---

test system: Ruminococcus gnavus DSM 108212; test: growth (OD595) fold change vs plate DMSO controls (fold change (ratio)); higher = more growth; conditions: incubation time: 27 h, anaerobic, 37 °C
Where a name gives a salt, the structure may show the parent alone.
Measured property: growth
One number for each entry.

Would you please look over these solved cases?
Compound: CC[C@H]1OC(=O)[C@H](C)[C@@H](O[C@H]2C[C@@](C)(OC)[C@@H](O)[C@H](C)O2)[C@H](C)[C@@H](O[C@@H]2O[C@H](C)C[C@H](N(C)C)[C@H]2O)[C@](C)(O)C[C@@H](C)/C(=N\OCOCCOC)[C@H](C)[C@@H](O)[C@]1(C)O [Roxithromycin] (20 µM)
growth: 0.194

Compound: CCCSc1ccc2[nH]c(NC(=O)OC)nc2c1 [Albendazole] (20 µM)
growth: 0.661

Compound: CN1Cc2c(N)cccc2C(c2ccccc2)C1 (stereo unspecified) [Nomifensine maleate] (20 µM)
growth: 1.1

Compound: CC(Cc1cccc(C(F)(F)F)c1)NCCOC(=O)c1ccccc1 (stereo unspecified) [Benfluorex] (20 µM)
growth: 0.795

Compound: O=C(NCCNCC(O)COc1ccc(O)cc1)N1CCOCC1 (stereo unspecified) [Xamoterol hemifumarate] (20 µM)
growth: 1

Could you tell me growth for each of these compounds? They are listed below.
1. Clc1ccc(C(c2ccccc2Cl)C(Cl)Cl)cc1 (stereo unspecified) [Mitotane] (20 µM)
2. CCOC(=O)c1c(N)sc2c1CCN(Cc1ccccc1)C2 [Tinoridine hydrochloride] (20 µM)
3. CCOC(=O)c1ccc(OC(=O)CCCCCNC(=N)N)cc1 [Gabexate mesilate] (20 µM)
4. COc1ccc(/C=C/C(=O)Nc2ccccc2C(=O)O)cc1OC [Tranilast] (20 µM)

Result:
1: 1.34; 2: 1.14; 3: 1.02; 4: 1.08

Could you tell me growth for each of these compounds? They are listed below.
1. CC(C)c1ccc2oc3nc(N)c(C(=O)O)cc3c(=O)c2c1 [Amlexanox] (20 µM)
2. c1ccc2c(c1)ccc1ccccc12 [Phenanthrene] (20 µM)
3. CCC1(c2ccccc2)C(=O)NCNC1=O [Primidone] (20 µM)
4. CCN(CC)CCOC(=O)C(c1ccccc1)c1ccccc1 [Adiphenine hydrochloride] (20 µM)
5. COc1ccc2c3c1O[C@H]1C[C@@H](O)C=C[C@@]31CCN(C)C2 [Galanthamine hydrobromide] (20 µM)
6. C[C@]12CC[C@H]3C(=CCc4cc(O)ccc43)[C@@H]1CCC2=O [Equilin] (20 µM)

Result:
1. 0.857
2. 0.96
3. 1.01
4. 1
5. 0.846
6. 1

Q: Report growth, nothing else, for this compound: OC[C@H]1OC(O)[C@H](O)[C@H](O)[C@@H]1O (stereo partly drawn) [D-allose] (50 µM)
Result: 1.07
